# STUDY SYSTEM: human delta-like ligand 3 (DLL3) on SHP77 cells (human) (UniProt Q9NYJ7)
# Sequence (Q9NYJ7 27-618, stated change not applied): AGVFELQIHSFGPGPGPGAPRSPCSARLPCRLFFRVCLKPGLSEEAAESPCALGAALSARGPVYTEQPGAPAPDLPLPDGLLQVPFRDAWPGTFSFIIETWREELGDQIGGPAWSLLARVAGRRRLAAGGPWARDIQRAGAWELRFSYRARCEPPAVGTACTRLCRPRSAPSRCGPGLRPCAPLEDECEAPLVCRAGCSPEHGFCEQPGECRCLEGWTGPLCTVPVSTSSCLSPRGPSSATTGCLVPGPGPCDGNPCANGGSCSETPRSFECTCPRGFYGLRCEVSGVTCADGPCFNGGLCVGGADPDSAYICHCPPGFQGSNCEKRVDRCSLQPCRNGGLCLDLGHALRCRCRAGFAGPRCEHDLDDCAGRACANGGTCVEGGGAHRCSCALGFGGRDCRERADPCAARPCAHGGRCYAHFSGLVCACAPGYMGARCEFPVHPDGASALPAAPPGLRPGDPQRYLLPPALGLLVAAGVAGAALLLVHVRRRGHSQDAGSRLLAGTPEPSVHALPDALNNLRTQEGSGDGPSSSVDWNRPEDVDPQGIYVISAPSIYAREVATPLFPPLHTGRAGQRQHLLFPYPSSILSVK
# TEST DETAILS: FACS on SHP77 cells
# maps each entry to its MFI at 20 nM

[
  {
    "BINDER": "Hab008L1H2a-hFc (scFv, part only; not given: VL-VH linker and human IgG1 Fc, V domains shown, not shown: another chain or arm of the molecule; a dimerising Fc or GST; small tags and cut ends) VL: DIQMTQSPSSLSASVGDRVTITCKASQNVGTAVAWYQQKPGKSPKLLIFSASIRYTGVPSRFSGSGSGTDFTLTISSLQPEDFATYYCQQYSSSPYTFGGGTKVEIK VH: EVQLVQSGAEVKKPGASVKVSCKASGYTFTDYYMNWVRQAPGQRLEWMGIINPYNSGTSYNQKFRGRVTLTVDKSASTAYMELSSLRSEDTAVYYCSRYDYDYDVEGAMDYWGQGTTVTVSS",
    "MFI at 20 nM": "532 MFI"
  },
  {
    "BINDER": "Hab009VL3aVH1-hFc (Fc fusion, part only; not given: Linker and human IgG1 Fc, not shown: a dimerising Fc or GST) scFv, part: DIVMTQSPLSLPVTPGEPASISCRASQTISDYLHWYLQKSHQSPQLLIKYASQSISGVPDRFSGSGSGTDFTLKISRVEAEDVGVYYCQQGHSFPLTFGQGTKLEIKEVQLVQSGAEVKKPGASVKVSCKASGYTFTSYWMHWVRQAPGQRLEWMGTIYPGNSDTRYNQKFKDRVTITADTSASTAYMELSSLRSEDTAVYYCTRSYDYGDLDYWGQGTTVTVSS",
    "MFI at 20 nM": "852 MFI"
  }
]
